target: human topo IIα (Homo sapiens, UniProt P11388); construct: purchased Inspiralis (Norwich, UK); assay: competitive ATPase assay at different ATP concentrations; type: biochemical; settings: c(ATP) 0.25
Sequence (P11388 whole entry): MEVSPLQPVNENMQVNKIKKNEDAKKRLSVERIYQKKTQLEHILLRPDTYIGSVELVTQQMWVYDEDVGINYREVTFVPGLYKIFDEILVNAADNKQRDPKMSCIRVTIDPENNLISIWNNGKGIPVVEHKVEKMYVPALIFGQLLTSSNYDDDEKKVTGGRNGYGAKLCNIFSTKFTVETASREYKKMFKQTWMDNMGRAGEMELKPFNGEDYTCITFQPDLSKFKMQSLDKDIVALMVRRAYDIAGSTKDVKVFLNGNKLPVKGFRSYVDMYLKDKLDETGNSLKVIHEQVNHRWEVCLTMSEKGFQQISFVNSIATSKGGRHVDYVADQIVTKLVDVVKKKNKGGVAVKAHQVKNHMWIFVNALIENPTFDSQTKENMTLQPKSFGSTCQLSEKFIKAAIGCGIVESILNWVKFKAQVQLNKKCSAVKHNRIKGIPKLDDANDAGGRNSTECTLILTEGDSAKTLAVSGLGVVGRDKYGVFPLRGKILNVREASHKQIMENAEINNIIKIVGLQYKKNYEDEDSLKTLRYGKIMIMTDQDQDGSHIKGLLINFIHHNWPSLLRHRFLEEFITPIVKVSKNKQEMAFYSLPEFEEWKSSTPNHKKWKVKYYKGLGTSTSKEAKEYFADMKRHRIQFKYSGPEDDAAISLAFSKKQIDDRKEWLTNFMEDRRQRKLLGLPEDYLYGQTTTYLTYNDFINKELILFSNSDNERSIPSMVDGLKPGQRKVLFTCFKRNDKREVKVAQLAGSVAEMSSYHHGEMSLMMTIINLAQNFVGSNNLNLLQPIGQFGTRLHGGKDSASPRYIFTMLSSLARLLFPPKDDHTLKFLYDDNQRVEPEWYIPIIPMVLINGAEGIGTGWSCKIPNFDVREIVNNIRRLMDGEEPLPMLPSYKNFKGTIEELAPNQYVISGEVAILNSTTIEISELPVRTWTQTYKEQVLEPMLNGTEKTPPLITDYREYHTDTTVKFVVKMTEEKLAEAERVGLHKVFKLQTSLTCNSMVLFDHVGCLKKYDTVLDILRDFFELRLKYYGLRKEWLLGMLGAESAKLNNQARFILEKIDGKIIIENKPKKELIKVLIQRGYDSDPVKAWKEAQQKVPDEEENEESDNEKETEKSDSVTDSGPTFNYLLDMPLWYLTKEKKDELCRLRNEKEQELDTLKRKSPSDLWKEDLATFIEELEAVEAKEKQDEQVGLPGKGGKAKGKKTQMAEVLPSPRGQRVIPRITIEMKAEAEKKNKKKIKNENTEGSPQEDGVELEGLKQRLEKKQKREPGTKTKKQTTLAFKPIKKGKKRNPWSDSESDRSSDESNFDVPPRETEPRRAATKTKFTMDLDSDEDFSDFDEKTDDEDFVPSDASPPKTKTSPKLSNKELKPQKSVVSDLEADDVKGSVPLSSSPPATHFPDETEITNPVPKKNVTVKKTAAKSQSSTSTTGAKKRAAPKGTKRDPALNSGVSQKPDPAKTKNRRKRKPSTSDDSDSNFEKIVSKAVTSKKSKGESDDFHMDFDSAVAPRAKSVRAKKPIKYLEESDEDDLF
measurementLabel: pIC50
# reply with the number alone; pIC50 is -log10 of concentration in mol/L

Q: // returns reported pIC50 for input Cc1nc(N)sc1-c1csc(Nc2ccc(C(F)(F)F)cc2)n1 [Compound 1]
Result: 4.74

###

Target: human topo IIα (Homo sapiens)
Construct: purchased Inspiralis (Norwich, UK)
Test: competitive ATPase assay at different ATP concentrations
Assay type: biochemical
Conditions: c(ATP) 2
Experimental: Then, we performed the competitive ATPase assay for compound 1, to investigate how our class of compounds affects the ATP hydrolysis in dependence of ATP concentration. Assay was performed at 8 different concentrations of ATP and compound 1. […] The assay was carried out in two parallels. […] In addition, we also calculated the IC50 values of compound 1 vs. different concentrations of the ATP. […]
measurementLabel: pIC50
# reply with the number alone; pIC50 is -log10 of concentration in mol/L

Q: Notebook: pull reported pIC50 for human topo IIα (Homo sapiens), entry Cc1nc(N)sc1-c1csc(Nc2ccc(C(F)(F)F)cc2)n1
Result: 4.60
